Source of measurements: patent US20130116182A1

- target: T1, Recombinant HLA-DRB1*0401 protein (human)
- T1 construct: also called DR0401
- method-description: competition with a reference peptide, residual Europium fluorescence
pIC50: −log10 of the molar value.
measurement-name: pIC50

Q) Data request, read-out pIC50, for SYATNMFATWSP [FVIII2194-2205, F2196A peptide]
A) < 4.30
